Overview of recorded zone of inhibition at 200 µg/disc for various compounds
# Tested on: Pseudomonas aeruginosa
# Measurement Notes: Antimicrobial activity against Pseudomonas aeruginosa ATCC 27853 at 200 ug after overnight incubation by disk-diffusion method
# Assay type: functional
# Assay Setup: read-out: DIZ
Readout Type: zone of inhibition at 200 µg/disc (mm)

>>> print(df.to_string())
                    structure_smiles_string  measurement_units  meas_value
0  Cn1c(Br)c(Br)[n+](CC(=O)c2ccccc2)c1-c1ccccc1.[Br-]                 mm           8
1  Cn1c[n+](CC(=O)c2ccccc2)cc1[N+](=O)[O-].[Br-]                 mm           9
2  Cc1n(C)c(I)c(I)[n+]1CC(=O)c1ccccc1.[Br-]                 mm           9
3  Cc1n(C)c(Br)c(Br)[n+]1CC(=O)c1ccccc1.[Br-]                 mm           9
4          CCOC(=O)C[n+]1cn(C)c(I)c1I.[Br-]                 mm           9

Values compiled from ChEMBL document CHEMBL2331384.
